test: Pharmacokinetics test in Beagle dogs, oral capsules; format: in vivo; conditions: dog, plasma; male Beagle dogs, oral capsule, 5 mg/kg
QUANTITY: Cmax

GIVEN_SMILES | QUANTITY | ASSAY_RESULT
Cc1nc(-c2cnc(N3CCN(CCCc4c[nH]c5ccc(C#N)cc45)CC3)nc2)sc1C(N)=O | Cmax | 496 ng/mL

* * *

assay: Pharmacokinetics test in Beagle dogs, oral capsules; format: in vivo; details: dog, plasma; male Beagle dogs, oral capsule, 5 mg/kg

GIVEN_SMILES | UNIT_SYMBOL | Tmax
Cc1nc(-c2cnc(N3CCN(CCCc4c[nH]c5ccc(C#N)cc45)CC3)nc2)sc1C(N)=O | h | 1.67
